target: Bcl-w (Homo sapiens, UniProt Q92843); assay: Fluorescence polarization competition with fluoresceinated Bim BH3; type: binding
Sequence (Q92843 whole entry): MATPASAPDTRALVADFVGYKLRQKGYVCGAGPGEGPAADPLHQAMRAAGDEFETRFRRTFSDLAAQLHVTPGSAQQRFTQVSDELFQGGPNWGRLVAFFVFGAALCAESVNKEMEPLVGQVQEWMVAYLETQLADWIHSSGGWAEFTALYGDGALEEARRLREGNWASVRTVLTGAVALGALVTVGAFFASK
ENDPOINT: pKi
Lab note: report pKi as minus log10 of the concentration in molar units, number only.

I looked up Ac-RPEIWIAQELRRAGDVLNAYYAR-NH2 [FA1] and its pKi for Bcl-w (Homo sapiens, UniProt Q92843) was 8.70
